# Subject Of Test: LCK (Homo sapiens)
# Sequence (P06239 whole entry): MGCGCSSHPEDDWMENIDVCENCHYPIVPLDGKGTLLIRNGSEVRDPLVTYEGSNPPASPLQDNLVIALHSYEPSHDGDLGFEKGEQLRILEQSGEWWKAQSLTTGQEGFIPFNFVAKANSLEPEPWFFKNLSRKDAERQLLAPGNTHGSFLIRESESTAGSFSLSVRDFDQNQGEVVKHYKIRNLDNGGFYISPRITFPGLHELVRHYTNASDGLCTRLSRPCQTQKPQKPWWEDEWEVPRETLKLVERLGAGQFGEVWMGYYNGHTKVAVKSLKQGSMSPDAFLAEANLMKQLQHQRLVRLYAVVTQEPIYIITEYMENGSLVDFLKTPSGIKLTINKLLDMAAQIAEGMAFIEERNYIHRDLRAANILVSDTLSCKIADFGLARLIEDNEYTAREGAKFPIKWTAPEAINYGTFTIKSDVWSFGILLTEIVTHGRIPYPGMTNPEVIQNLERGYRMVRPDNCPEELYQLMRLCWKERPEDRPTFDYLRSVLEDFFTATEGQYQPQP
# Protocol: Inhibition of a panel of kinases, in vitro HotSpot kinase assay: LCK
# Format: biochemical
# Details: D-compounds panel data; 1 μM ATP; read-out: IC50 LCK
Property Name: IC50

Some compounds with recorded IC50:
CC(C)c1ccc(C(=O)N[C@@H]2CCCN(c3cnc(C(N)=O)c(Nc4cnn(C)c4)n3)C2)cc1 [Example D-222]	1 to 10 µM
CN(C)C(=O)N[C@H]1CCCN(c2cnc(C(N)=O)c(Nc3ccc4ncccc4c3)n2)[C@H]1CO (racemic) [Example D-65]	> 10 µM
Cc1cc(Nc2nc(N3C[C@H](NC(=O)c4ccc(C5CC5)cc4F)CC[C@H]3C)cnc2C(N)=O)sn1 [Example D-79]	1 to 10 µM
C[C@@H]1[C@H](NC(=O)c2ccc(N(C)C)cc2)CCCN1c1cnc(C(N)=O)c(Nc2ccc(C3(C)CCN(C4CCCC4)CC3)cc2)n1 [Example D-183]	0.01 to 0.1 µM

Qu. Which measured IC50 belongs to Cn1cc(Nc2nc(N3CCC[C@@H](NC(=O)c4ccc(C(C)(C)O)cc4)C3)nnc2C(N)=O)cn1 [Example D-39] , tested on LCK (Homo sapiens)?
Ans. 0.1 to 1 µM

Qu. Which measured IC50 belongs to C[C@@H]1[C@H](NC(=O)c2ccc(C3CC3)cc2F)CCCN1c1cnc(C(N)=O)c(Nc2cnn(C)c2)c1 [Example D-117] , tested on LCK (Homo sapiens)?
Ans. 0.1 to 1 µM

Qu. Which measured IC50 belongs to C[C@@H]1[C@H](NC(=O)c2ccc(C(C)(O)C(F)(F)F)cc2)CCCN1c1cnc(C(N)=O)c(Nc2cnn(C)c2)n1 (single isomer, unassigned) [Example D-213] , tested on LCK (Homo sapiens)?
Ans. 0.1 to 1 µM

Qu. Which measured IC50 belongs to C[C@@H]1[C@H](NC(=O)c2ccc(C(C)(C)F)cc2)CCCN1c1cnc(C(N)=O)c(Nc2cnn(C)c2)n1 [Example D-251] , tested on LCK (Homo sapiens)?
Ans. 0.01 to 0.1 µM

Qu. Which measured IC50 belongs to C[C@@H]1[C@H](NC(=O)c2ccc(C3CC3)cc2)CCCN1c1cnc(C(N)=O)c(Nc2cn[nH]c2)n1 [Example D-282] , tested on LCK (Homo sapiens)?
Ans. 0.1 to 1 µM

Qu. Which measured IC50 belongs to C[C@@H]1[C@H](NC(=O)c2ccc(C3CC3)cn2)CCCN1c1cnc(C(N)=O)c(Nc2ccc(N3CCN(C)CC3)cc2)n1 [Example D-188] , tested on LCK (Homo sapiens)?
Ans. 0.1 to 1 µM

Qu. Which measured IC50 belongs to Cc1ccc(-c2cnc([C@H]3CCCN(c4cnc(C(N)=O)c(Nc5cc(C)ns5)n4)C3)[nH]2)cc1 [Example D-136] , tested on LCK (Homo sapiens)?
Ans. 0.1 to 1 µM

Qu. Which measured IC50 belongs to C[C@@H]1[C@H](NC(=O)c2ccc3c(cnn3C)c2)CCCN1c1cnc(C(N)=O)c(Nc2ccc(N3CCN(C)CC3)cc2)n1 [Example D-234] , tested on LCK (Homo sapiens)?
Ans. 0.01 to 0.1 µM

Qu. Which measured IC50 belongs to Cc1cc(Nc2nc(N3CCCC(c4ncc(-c5ccccc5)[nH]4)C3)cnc2C(N)=O)sn1 [Example D-164] , tested on LCK (Homo sapiens)?
Ans. 0.1 to 1 µM

====

# Subject Of Test: BTK-WT (Homo sapiens, UniProt Q06187)
# Construct: purified from insect cells as a full-length construct containing an N-terminal 6X-His tag; His6 (N); made in house; host or cells: insect cells (baculovirus Sf21 in Method B)
# Sequence (Q06187 whole entry): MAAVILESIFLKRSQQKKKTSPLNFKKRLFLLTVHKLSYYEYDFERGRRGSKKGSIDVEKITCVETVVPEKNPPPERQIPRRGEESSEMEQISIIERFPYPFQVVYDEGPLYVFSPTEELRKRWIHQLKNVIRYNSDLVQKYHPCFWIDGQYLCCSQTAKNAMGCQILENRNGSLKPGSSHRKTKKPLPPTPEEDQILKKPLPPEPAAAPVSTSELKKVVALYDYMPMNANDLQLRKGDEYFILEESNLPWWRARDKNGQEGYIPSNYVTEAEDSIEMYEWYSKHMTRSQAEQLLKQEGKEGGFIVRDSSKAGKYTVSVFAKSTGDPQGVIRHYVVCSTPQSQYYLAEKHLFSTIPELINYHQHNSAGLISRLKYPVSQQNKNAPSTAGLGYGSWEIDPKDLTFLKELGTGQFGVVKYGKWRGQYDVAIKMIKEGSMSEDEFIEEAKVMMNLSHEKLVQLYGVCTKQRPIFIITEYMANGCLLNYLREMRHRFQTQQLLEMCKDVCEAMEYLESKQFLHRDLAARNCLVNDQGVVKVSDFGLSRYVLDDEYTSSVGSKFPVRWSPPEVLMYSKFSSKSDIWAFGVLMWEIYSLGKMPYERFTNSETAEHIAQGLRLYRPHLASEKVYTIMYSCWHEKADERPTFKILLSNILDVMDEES
# Protocol: Btk in vitro inhibitory activity (one of Method A TR-FRET, Method B electrophoretic mobility shift, Method C radiometric filter binding)
# Type: biochemical
# Details: Table 15, C compounds; read-out: IC50 BTK-WT
pIC50: −log10 of the molar value.
Property Name: pIC50

Some compounds with recorded pIC50:
C=CC(=O)N1CCC[C@@H](Nc2nnc(C(N)=O)c(Nc3ccc(-n4nccn4)cc3)n2)C1 [Example C-81]	≥ 8.00
C=CC(=O)N1CCC[C@@H](Nc2nnc(C(N)=O)c(Nc3ccc(I)cc3)n2)C1 [Example C-62]	≥ 8.00
C=CC(=O)N1CCC[C@H](Nc2nnc(C(N)=O)c(Nc3ccc(C(C)(C)C)cc3)n2)C1 [Example C-39]	≥ 8.00
C=CC(=O)N1CCC[C@@H](N(C)c2cnc(C(N)=O)c(Nc3ccc(C4(C)CCN(C5CCCC5)CC4)cc3)n2)C1 [Example C-44]	≥ 8.00
C=CC(=O)N1CCC[C@@H](Nc2nnc(C(N)=O)c(Nc3ccc(-n4cncn4)cc3)n2)C1 [Example C-83]	≥ 8.00

Qu. # get_value(readout='pIC50', item= C=CC(=O)N1CCC[C@@H](Nc2nnc(C(N)=O)c(Nc3ccc(C)cc3)n2)C1 [Example C-54] )
Ans. ≥ 8.00

Qu. # get_value(readout='pIC50', item= C=CC(=O)N1CCC[C@@H](Nc2nnc(C(N)=O)c(Nc3ccc(-c4nccs4)cc3)n2)C1 [Example C-77] )
Ans. ≥ 8.00

====

# Subject Of Test: EGFR (Homo sapiens, UniProt P00533)
# Sequence (P00533 25-1210): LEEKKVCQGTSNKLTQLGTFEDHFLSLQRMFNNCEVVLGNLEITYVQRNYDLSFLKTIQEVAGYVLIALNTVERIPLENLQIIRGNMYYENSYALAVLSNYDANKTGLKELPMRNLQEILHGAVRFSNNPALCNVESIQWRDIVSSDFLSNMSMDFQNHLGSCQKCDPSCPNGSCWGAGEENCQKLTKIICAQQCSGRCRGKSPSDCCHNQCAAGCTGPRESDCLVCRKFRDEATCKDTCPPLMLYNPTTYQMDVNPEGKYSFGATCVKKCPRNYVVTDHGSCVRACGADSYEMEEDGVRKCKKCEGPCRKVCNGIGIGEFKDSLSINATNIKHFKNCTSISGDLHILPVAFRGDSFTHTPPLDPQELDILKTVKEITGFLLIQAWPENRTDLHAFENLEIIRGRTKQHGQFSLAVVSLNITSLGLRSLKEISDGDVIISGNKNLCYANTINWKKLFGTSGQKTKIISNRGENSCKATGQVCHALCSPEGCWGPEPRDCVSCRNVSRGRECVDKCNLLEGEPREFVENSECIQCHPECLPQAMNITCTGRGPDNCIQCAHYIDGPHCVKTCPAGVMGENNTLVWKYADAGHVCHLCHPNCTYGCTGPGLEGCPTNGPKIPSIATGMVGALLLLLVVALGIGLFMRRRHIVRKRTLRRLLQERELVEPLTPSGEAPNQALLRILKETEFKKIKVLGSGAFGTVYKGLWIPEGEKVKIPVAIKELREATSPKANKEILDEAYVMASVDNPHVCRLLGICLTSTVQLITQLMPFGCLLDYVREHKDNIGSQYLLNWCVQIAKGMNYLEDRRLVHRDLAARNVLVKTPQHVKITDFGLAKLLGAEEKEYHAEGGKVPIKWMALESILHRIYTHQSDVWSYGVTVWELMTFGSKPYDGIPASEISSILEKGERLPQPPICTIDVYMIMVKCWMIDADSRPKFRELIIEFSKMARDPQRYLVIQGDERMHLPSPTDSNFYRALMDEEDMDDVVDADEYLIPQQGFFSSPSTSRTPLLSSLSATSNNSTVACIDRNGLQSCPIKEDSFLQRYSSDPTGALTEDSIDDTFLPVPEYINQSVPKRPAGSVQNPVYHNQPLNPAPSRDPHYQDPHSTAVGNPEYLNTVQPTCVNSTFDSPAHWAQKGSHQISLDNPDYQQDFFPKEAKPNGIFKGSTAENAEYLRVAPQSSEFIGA
# Protocol: Inhibition of a panel of kinases, in vitro HotSpot kinase assay: EGFR
# Type: biochemical
# Details: D-compounds panel data; 1 μM ATP
The following compounds are listed with their measured IC50 values.

Some compounds with recorded IC50:
NC(=O)c1ncc(N2CCC[C@@H](NC(=O)c3ccc(C4CC4)cc3F)C2)nc1Nc1cc(-c2ccccc2)ns1	> 10 µM
C[C@@H]1[C@H](NC(=O)c2ccc(C3(O)CCCC3)cc2)CCCN1c1cnc(C(N)=O)c(Nc2cnn(C)c2)n1	1 to 10 µM
CN(C)C(=O)N[C@H]1CCCN(c2cnc(C(N)=O)c(Nc3ccc(C4(C)CCN(C5CCCC5)CC4)cc3)n2)[C@H]1CO	1 to 10 µM

Turning now to a further compound:
Qu. Which measured IC50 belongs to `CC(C)n1ccc(C(=O)N[C@@H]2CCCN(c3cnc(C(N)=O)c(Nc4cnn(C)c4)n3)[C@@H]2C)cc1=O` , tested on EGFR (Homo sapiens, UniProt P00533)?
Ans. 1 to 10 µM

====

# Subject Of Test: ITK (Homo sapiens, UniProt Q08881)
# Sequence (Q08881 whole entry): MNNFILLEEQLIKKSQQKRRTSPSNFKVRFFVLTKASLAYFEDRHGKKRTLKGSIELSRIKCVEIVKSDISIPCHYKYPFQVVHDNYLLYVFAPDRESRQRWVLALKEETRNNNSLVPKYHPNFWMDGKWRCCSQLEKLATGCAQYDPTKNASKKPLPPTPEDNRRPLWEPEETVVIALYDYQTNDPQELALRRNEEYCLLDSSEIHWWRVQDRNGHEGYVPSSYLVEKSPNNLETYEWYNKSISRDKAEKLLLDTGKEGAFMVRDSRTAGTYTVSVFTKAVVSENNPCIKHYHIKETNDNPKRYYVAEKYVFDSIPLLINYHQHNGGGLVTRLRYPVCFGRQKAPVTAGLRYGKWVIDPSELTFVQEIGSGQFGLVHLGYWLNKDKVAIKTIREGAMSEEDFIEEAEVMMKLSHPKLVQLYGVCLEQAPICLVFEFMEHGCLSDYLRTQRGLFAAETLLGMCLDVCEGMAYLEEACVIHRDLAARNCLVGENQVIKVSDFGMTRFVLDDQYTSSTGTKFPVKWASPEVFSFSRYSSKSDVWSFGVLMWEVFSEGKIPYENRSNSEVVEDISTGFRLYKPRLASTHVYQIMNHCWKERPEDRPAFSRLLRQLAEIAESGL
# Protocol: Inhibition of a panel of kinases, in vitro HotSpot kinase assay: ITK
# Assay type: biochemical
# Details: D-compounds panel data; 1 μM ATP
pIC50: −log10 of the molar value.
The following compounds are listed with their measured pIC50 values.

Some compounds with recorded pIC50:
C[C@@H]1[C@H](NC(=O)c2ccc(C3CC3)cc2)CCCN1c1cnc(C(N)=O)c(Nc2cc(C3CCN(C4CCCC4)CC3)ns2)n1	7.00 to 8.00
C[C@@H]1[C@H](NC(=O)N(C)C)CCCN1c1cnc(C(N)=O)c(Nc2ccc(N3CCN(C4CCCC4)CC3)cc2)n1	6.00 to 7.00
Cc1ccc(-c2cnc([C@@H]3CCCN(c4cnc(C(N)=O)c(Nc5cc(C)ns5)n4)C3)[nH]2)cc1	< 5.00
C[C@@H]1[C@H](NC(=O)c2ccc(C(C)(C)F)cc2)CCCN1c1cnc(C(N)=O)c(Nc2cnn(C)c2)n1	6.00 to 7.00
CC(=O)N1CCC(n2cc(Nc3nc(N4CCC[C@@H](NC(=O)c5ccc(C6CC6)cc5)[C@H]4C)cnc3C(N)=O)cn2)CC1	6.00 to 7.00
C[C@@H]1[C@H](NC(=O)c2ccc(C3CC3)cc2)CCCN1c1cnc(C(N)=O)c(Nc2ccc(C3CCN(C)CC3)cc2)n1	6.00 to 7.00
C[C@@H]1[C@H](NC(=O)c2ccc(C3CC3)c(Cl)c2)CCCN1c1cnc(C(N)=O)c(Nc2ccc(N3CCN(C)CC3)cc2)n1	6.00 to 7.00
Cc1cc(Nc2nc(N3C[C@@H](NC(=O)c4ccc(C5CC5)cc4F)CC[C@@H]3C)cnc2C(N)=O)sn1	5.00 to 6.00
Cn1cc(Nc2nc(N3CCC[C@@H]4[C@H]3CCN4C(=O)c3ccc(C4CC4)cc3)cnc2C(N)=O)cn1	< 5.00
C[C@H]1C[C@@H](NC(=O)c2ccc(C3CC3)cc2)CN(c2cnc(C(N)=O)c(Nc3cnn(C)c3)n2)C1	5.00 to 6.00

Qu. # get_value(readout='pIC50', item= `C[C@@H]1[C@H](NC(=O)c2ccc(N(C)C)cc2)CCCN1c1cnc(C(N)=O)c(Nc2cnn(C)c2)n1` )
Ans. 6.00 to 7.00

Qu. # get_value(readout='pIC50', item= `C[C@@H]1[C@H](NC(=O)c2ccc(C3CC3)cc2F)CCCN1c1cnc(C(N)=O)c(Nc2ccc(N3CCNCC3)c(F)c2)n1` )
Ans. 7.00 to 8.00

Qu. # get_value(readout='pIC50', item= `C[C@@H]1[C@H](NC(=O)c2ccc(C3CC3)cc2F)CCCN1c1cnc(C(N)=O)c(Nc2ccc(N3CCN(C)CC3=O)cc2)n1` )
Ans. 6.00 to 7.00
